Reported values of Resistance index (RI) for individual entries
system: A2780cis cells with acquired resistance to cisplatin; assay: Cytotoxicity, PrestoBlue assay, A2780cis; assay type: cell-based, human; details: RI = IC50 A2780cis/IC50 A2780

{"columns": ["Compound", "Resistance index (RI)"],
 "data": [
  ["CC[n+]1[c]([Au-][I])oc2ccccc21", 31.5],
  ["[I][Pt-2]([I])([c]1n(Cc2ccccc2)cc[n+]1Cc1ccccc1)[n+]1ccccc1", 1.9],
  ["CC(=O)OC[C@H]1O[C@@H]([S-])[C@H](OC(C)=O)[C@@H](OC(C)=O)[C@@H]1OC(C)=O.CCP(CC)CC.[Au+] [Auranofin, auranofin, reference compound]", 20.6],
  ["CCn1[c]([Au-][I])[n+](CC)c2ccccc21", 4.9],
  ["C[n+]1cco[c]1[Pt-2]([I])([I])[n+]1ccccc1", 2.0],
  ["[I][Pt-2]([I])([c]1occ[n+]1Cc1ccccc1)[n+]1ccccc1", 1.5],
  ["Cn1cc[n+](C)[c]1[Pt-2]([I])([I])[n+]1ccccc1", 1.0]
]}

====

system: non-cancerous human embryonic kidney HEK293T cells; assay: Cytotoxicity, PrestoBlue assay, HEK293T; assay type: cell-based; details: 72 h, PrestoBlue; listed as Au3^Se; read-out: IC50 (µM) after 72 h, HEK293T
Property name: IC50 (µM)

{"columns": ["Structure notation", "Measurement"],
 "data": [
  ["CC[n+]1[c]([Au-][I])oc2ccccc21", 0.1]
]}

====

test system: A2780 ovarian cancer cell line; assay: Cytotoxicity, PrestoBlue assay, A2780; format: cell-based, human; conditions: 72 h, PrestoBlue; listed as Au3^Se; read-out: IC50 (µM) after 72 h, A2780
Property name: IC50 (µM)

{"columns": ["Structure notation", "Property name", "Measurement"],
 "data": [
  ["CC[n+]1[c]([Au-][I])oc2ccccc21", "IC50", 0.1]
]}

====

tested on: ovarian cancer cell lines (A2780 and A2780cis); experiment: Cytotoxicity stated jointly for both ovarian cancer cell lines; details: read-out: Cytotoxicity (IC50) in the ovarian cancer cell lines; A2780 and A2780cis together, approximate text values, 72 h
pIC50: −log10 of the molar value.

{"columns": ["Molecule", "Study target", "pIC50"],
 "data": [
  ["[I][Pt-2]([I])([c]1occ[n+]1Cc1ccccc1)[n+]1ccccc1 [Pt2^O]", "ovarian cancer cell lines (A2780 and A2780cis)", "~5.30"]
]}

====

system: non-cancerous human embryonic kidney HEK293T cells; test: Cytotoxicity, PrestoBlue assay, HEK293T; format: cell-based; settings: Homo sapiens, HEK-293T; 72 h, PrestoBlue; read-out: IC50 (µM) after 72 h, HEK293T
Reported values of IC50 for individual entries
Property name: IC50

{"columns": ["Compound", "Study target", "Measurement"],
 "data": [
  ["CC[n+]1coc2ccccc21 [3O·HI]", "non-cancerous human embryonic kidney HEK293T cells", "> 100 µM"],
  ["C[n+]1ccoc1 [1O·HI]", "non-cancerous human embryonic kidney HEK293T cells", "59.1 µM"],
  ["CC[n+]1csc2ccccc21 [3S·HI]", "non-cancerous human embryonic kidney HEK293T cells", "> 100 µM"],
  ["c1ccc(C[n+]2csc3ccccc32)cc1 [4S·HBr]", "non-cancerous human embryonic kidney HEK293T cells", "36.8 µM"],
  ["C[n+]1ccsc1 [1S·HI]", "non-cancerous human embryonic kidney HEK293T cells", "> 100 µM"],
  ["CCn1c[n+](CC)c2ccccc21 [3NEt·HI]", "non-cancerous human embryonic kidney HEK293T cells", "> 100 µM"],
  ["Cn1cc[n+](C)c1 [1NMe·HI]", "non-cancerous human embryonic kidney HEK293T cells", "> 100 µM"],
  ["c1ccc(Cn2cc[n+](Cc3ccccc3)c2)cc1 [2NBn·HBr]", "non-cancerous human embryonic kidney HEK293T cells", "51.1 µM"],
  ["c1ccc(C[n+]2ccsc2)cc1 [2S·HBr]", "non-cancerous human embryonic kidney HEK293T cells", "> 100 µM"],
  ["c1ccc(Cn2c[n+](Cc3ccccc3)c3ccccc32)cc1 [4NBn·HBr]", "non-cancerous human embryonic kidney HEK293T cells", "35.2 µM"],
  ["c1ccc(C[n+]2ccoc2)cc1 [2O·HBr]", "non-cancerous human embryonic kidney HEK293T cells", "> 100 µM"]
]}

The measured values listed here are drawn from paper PMC12794336.
